Parameter: inhibition. Scope: all listed entries.
- protocol: Free radical scavenging activity assessed as inhibition of DPPH radical generation at 100 ug
- Format: functional
Write the value in % as a bare number.

Below, 5 compounds whose answers are already recorded.
>>> measured_value("Cc1cc(C(C)(C)C)c(O)c(C(C)(C)C)c1")
93.2
>>> measured_value("Cc1ccc([C@H]2CC(c3ccc(Cl)cc3)=NN2c2ncc(Br)cn2)cc1")
80
>>> measured_value("Clc1ccc(C2=NN(c3ncc(Br)cn3)[C@@H](c3ccc(Cl)cc3)C2)cc1")
78.3
>>> measured_value("O=[N+]([O-])c1ccc([C@H]2CC(c3ccccc3)=NN2c2ncc(Br)cn2)cc1")
75.6
>>> measured_value("COc1ccc([C@H]2CC(c3ccc(Cl)cc3)=NN2c2ncc(Br)cn2)cc1")
89.8

-- ask Note down inhibition recorded for `Clc1ccc([C@H]2CC(c3ccc(Br)cc3)=NN2c2ncc(Br)cn2)cc1`
-- reply 78.9

-- ask Fill in reported inhibition for this entry: `Clc1ccc([C@H]2CC(c3ccccc3)=NN2c2ncc(Br)cn2)cc1`
-- reply 93.5

-- ask Consider the compound `Clc1ccc(C2=NN(c3ncc(Br)cn3)[C@@H](c3ccccc3)C2)cc1` . State its measured inhibition.
-- reply 90.5
